- systemTested: Carbonic anhydrase 5B, mitochondrial (Homo sapiens) (UniProt Q9Y2D0)
- Sequence (Q9Y2D0 whole entry): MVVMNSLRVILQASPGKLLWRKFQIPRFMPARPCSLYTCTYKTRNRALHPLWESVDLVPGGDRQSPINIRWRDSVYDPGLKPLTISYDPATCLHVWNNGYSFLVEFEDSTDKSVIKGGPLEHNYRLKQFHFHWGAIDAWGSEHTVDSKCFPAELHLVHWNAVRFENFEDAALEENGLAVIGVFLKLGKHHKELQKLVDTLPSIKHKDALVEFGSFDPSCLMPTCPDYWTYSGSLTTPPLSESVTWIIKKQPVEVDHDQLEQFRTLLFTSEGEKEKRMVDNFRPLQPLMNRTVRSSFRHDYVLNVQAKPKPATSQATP
Items are presented alongside their recorded Ki.
observable: Ki (nM)

[[record]]
molecule = "COc1cc([C@@H]2[C@@H](C)[C@H](C)[C@H]2c2ccc(O)c(OC)c2)ccc1O"
observable = "Ki"
valuereported = 69

[[record]]
molecule = "O=C(Cc1ccc(O)c(Cl)c1)NCCc1ccccc1"
observable = "Ki"
valuereported = 91

[[record]]
molecule = "OCCc1ccc(O)cc1"
observable = "Ki"
valuereported = 105

[[record]]
molecule = "COCCNC(=O)Cc1ccc(O)c(Cl)c1"
observable = "Ki"
valuereported = 84

[[record]]
molecule = "COC(=O)/C=C/C(=O)O"
observable = "Ki"
valuereported = 98

[[record]]
molecule = "COc1cc([C@@H]2[C@@H](C)[C@@H](C)[C@@H]2c2ccc(O)c(OC)c2)ccc1O"
observable = "Ki"
valuereported = 79

[[record]]
molecule = "O=C(O)/C=C/C(=O)O"
observable = "Ki"
valuereported = 90

[[record]]
molecule = "COc1cc(/C=C2\\N=C(N)NC2=O)ccc1O"
observable = "Ki"
valuereported = 70

[[record]]
molecule = "O=C(O)Cc1ccc(O)cc1"
observable = "Ki"
valuereported = 107

[[record]]
molecule = "CCCCNC(=O)Cc1ccc(O)c(Cl)c1"
observable = "Ki"
valuereported = 81

[[record]]
molecule = "O=C(Cc1ccc(O)c(Cl)c1)NCc1ccccc1"
observable = "Ki"
valuereported = 85

[[record]]
molecule = "COc1cc(C[C@@H](C)[C@H](C)Cc2ccc(O)c(OC)c2)ccc1O"
observable = "Ki"
valuereported = 71


Each recorded value in this set is attributed to ChEMBL document CHEMBL1157705.
